- system_tested: Nav1.3 (Homo sapiens, UniProt Q9NY46)
- Sequence (Q9NY46 whole entry, looked up): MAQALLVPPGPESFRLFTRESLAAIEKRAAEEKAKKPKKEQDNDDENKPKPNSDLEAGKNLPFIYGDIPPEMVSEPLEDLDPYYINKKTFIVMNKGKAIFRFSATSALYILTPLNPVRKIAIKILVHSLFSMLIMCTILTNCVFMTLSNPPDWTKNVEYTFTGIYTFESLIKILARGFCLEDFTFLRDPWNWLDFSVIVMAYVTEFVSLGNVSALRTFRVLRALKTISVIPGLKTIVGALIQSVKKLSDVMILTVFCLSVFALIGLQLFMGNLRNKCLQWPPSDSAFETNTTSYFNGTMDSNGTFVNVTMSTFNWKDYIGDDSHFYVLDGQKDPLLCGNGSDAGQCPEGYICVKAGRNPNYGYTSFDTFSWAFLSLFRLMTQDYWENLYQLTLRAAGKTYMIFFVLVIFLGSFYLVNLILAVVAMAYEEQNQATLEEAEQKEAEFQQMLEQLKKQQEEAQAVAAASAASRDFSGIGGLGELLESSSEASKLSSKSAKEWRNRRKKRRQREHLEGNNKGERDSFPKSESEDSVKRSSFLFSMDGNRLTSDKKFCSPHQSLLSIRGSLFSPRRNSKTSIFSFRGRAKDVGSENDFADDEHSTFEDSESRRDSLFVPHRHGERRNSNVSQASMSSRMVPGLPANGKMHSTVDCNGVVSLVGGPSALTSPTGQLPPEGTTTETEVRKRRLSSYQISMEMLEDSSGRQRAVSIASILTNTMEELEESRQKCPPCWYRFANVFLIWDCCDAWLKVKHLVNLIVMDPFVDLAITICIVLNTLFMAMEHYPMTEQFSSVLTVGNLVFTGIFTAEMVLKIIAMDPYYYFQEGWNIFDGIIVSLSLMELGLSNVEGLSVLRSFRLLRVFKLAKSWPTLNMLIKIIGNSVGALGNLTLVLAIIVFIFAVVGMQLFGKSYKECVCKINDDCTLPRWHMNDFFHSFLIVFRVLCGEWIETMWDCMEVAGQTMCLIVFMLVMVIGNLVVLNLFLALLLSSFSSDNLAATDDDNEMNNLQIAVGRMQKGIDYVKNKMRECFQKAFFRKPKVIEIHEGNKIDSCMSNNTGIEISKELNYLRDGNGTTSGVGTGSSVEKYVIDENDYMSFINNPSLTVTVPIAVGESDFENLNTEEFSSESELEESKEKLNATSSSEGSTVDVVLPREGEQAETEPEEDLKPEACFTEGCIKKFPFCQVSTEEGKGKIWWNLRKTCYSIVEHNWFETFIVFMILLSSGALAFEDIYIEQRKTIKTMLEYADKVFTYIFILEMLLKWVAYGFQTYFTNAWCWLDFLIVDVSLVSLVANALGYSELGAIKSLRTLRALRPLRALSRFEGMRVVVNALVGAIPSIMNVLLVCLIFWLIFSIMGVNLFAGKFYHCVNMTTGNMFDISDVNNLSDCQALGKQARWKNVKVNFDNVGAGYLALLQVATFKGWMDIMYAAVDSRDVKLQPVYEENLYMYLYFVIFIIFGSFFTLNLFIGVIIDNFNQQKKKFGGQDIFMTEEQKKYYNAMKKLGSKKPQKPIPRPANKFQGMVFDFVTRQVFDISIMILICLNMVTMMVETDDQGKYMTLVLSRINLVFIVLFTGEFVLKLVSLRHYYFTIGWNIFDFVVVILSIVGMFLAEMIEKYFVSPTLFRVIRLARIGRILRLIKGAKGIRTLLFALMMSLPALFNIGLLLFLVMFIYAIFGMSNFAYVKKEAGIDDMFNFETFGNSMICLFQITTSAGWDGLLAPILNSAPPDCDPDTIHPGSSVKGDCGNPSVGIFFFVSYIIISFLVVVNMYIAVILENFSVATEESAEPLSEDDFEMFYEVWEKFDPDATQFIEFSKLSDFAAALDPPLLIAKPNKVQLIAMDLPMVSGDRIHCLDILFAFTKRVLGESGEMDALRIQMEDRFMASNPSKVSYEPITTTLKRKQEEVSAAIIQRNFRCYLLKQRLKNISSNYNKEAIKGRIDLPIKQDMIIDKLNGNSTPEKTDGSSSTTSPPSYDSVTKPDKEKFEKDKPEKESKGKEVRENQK
- Assay type: cell-based
- settings: read-out: IC50, block of veratridine-stimulated sodium influx
value_type: IC50 (nM)
One number for each entry, in nM.

Quick one: IC50 for `NC1=N[C@H](O)[C@H]2[C@H]3O[C@]4(O)O[C@@H]([C@@H](O)[C@@]2(N1)[C@@H]4O)[C@]3(O)CO` ?
3.3

----------
- system_tested: Nav1.3 (Homo sapiens, UniProt Q9NY46)
- Format: cell-based
- settings: read-out: concentration to half block the veratridine-induced increase in fluorescence (IC50)
value_type: pIC50
Numbers only, as −log10 of the molar value.

// returns reported pIC50 for input NC1=N[C@H](O)[C@H]2[C@H]3O[C@]4(O)O[C@@H]([C@@H](O)[C@@]2(N1)[C@@H]4O)[C@]3(O)CO [TTX, tetrodotoxin]
8.55
